Structures can show the parent of a compound that is named as a salt.
Listed here: compounds with reported Ki for 5-HT2 receptors (Rattus norvegicus).

{"columns": ["Compound", "Ki"],
 "data": [
  ["Fc1ccc(OCC2CNCCO2)c2c1CCC2 (single isomer, unassigned; (-)) [Example 5, hydrochloride]", "100 nM"]
]}

For the 3 compounds below, give their Ki values.
1. Fc1ccc(OCC2CNCCO2)c2c1CCC2.O=C(O)/C=C/C(=O)O (single isomer, unassigned; (-)) [Example 4, fumarate]
2. C1=Cc2cccc(OCC3CNCCO3)c2C1 (stereo not shown) [compound 2, 2-[[(7-Indenyl)oxy]methyl]morpholine, reference compound]
3. c1cc2c(c(OCC3CNCCO3)c1)CCC2 (stereo not shown) [compound 1, 2-[[(4-Indanyl)oxy]methyl]morpholine, reference compound]

[out]
100 nM
4670 nM
1030 nM

----------
For each entry below, report its Ki value.
- Assay system: 5-HT reuptake sites (Rattus norvegicus, UniProt P31652)
- Construct: a rat cerebral cortex membrane preparation (about 0.4 mg-protein)
- Sequence (P31652 whole entry): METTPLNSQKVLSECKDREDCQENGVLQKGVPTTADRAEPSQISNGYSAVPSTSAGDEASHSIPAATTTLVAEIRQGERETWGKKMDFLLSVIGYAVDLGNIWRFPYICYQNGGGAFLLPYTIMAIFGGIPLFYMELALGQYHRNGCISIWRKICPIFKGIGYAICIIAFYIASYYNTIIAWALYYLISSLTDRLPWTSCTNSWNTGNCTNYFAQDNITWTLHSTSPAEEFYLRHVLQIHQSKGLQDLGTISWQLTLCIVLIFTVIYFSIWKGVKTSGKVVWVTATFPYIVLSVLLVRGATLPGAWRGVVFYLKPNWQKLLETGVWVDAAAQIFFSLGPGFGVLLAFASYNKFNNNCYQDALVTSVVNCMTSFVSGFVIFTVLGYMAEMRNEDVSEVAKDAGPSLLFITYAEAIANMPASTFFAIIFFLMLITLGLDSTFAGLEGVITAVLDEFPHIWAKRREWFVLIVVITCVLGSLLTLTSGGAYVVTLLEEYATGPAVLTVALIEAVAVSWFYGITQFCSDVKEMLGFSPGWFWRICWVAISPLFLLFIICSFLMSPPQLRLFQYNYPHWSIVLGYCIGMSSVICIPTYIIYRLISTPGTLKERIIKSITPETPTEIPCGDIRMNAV
- Assay text: [3H]-Citalopram binding to 5-HT reuptake sites (5-HT reuptake inhibition, in vitro)
- Conditions used: rat cerebral cortex membrane, about 1.0 nM [3H]-Citalopram, 25° C., 60 minutes
Where a name gives a salt, the structure may show the parent alone.
Answers are plain numbers, in nM.

Example molecules with recorded Ki:
{"columns": ["Molecule", "Uom", "Ki"],
 "data": [
  ["c1cc2c(c(OCC3CNCCO3)c1)CCC2 (stereo not shown) [compound 1, 2-[[(4-Indanyl)oxy]methyl]morpholine, reference compound]", "nM", 52],
  ["Fc1ccc(OCC2CNCCO2)c2c1CCC2 (single isomer, unassigned; (-)) [Example 5, hydrochloride]", "nM", 21],
  ["C1=Cc2cccc(OCC3CNCCO3)c2C1 (stereo not shown) [compound 2, 2-[[(7-Indenyl)oxy]methyl]morpholine, reference compound]", "nM", 22]
]}

Let's switch to this molecule now.
Record summary for Fc1ccc(OCC2CNCCO2)c2c1CCC2.O=C(O)/C=C/C(=O)O (single isomer, unassigned; (-)) [Example 4, fumarate] : reported Ki = 21

----------
- Tested on: [3H]-5-HT uptake
- Assay text: [3H]-5-HT uptake into cerebral cortex synaptosomes
- Type: biochemical, Wistar male rat
- Conditions used: rat cerebral cortex synaptosomes, 10^-7 M ligand, 37° C.; read-out: IC50 in inhibition of [3H]-5-HT uptake
Recorded metric: pIC50
Numbers only, as −log10 of the molar value.

For Fc1ccc(OCC2CNCCO2)c2c1CCC2 (stereo not shown) the molecule record lists pIC50 as 6.64
